tested on: HeLa; test: Potentiation factor, ratio of IC50 for methyl methanesulfonate to IC50 for methyl methanesulfonate with 200 nM drug for inhibition of human HeLa B cells
Quantity: PF50
Please respond with just the number, no unit label.

The compound listed as O=C(c1ccccc1)N1CCN(C(=O)c2cc(Cc3n[nH]c(=O)c4ccccc34)ccc2F)CC1 has a reported PF50 of 8.2

Input O=C(c1cc(Cc2n[nH]c(=O)c3ccccc23)ccc1F)N1CCN(c2ccccc2)CC1 . Output PF50: 5.2

Please fill in: PF50 reported for O=C(c1cc(Cc2n[nH]c(=O)c3ccccc23)ccc1F)N1CCCN(CCO)CC1 = 18

Input O=C(c1cc(Cc2n[nH]c(=O)c3ccccc23)ccc1F)N1CCCN(C(=O)C2CC2)CC1 . Output PF50: 4.2

Record O=C(c1cccc(Cc2n[nH]c(=O)c3ccccc23)c1)N1CCCN(C(=O)N2CCOCC2)CC1 . Reported PF50: 1.4

Measured PF50 of O=C(c1cc(Cc2n[nH]c(=O)c3ccccc23)ccc1F)N1CCN(C(=O)C2CCCCC2)CC1 : 11.1

PF50 in this record for CN1CCN(C(=O)c2cc(Cc3n[nH]c(=O)c4ccccc34)ccc2F)CC1 : 2.5

So, O=C(c1cccc(Cc2n[nH]c(=O)c3ccccc23)c1)N1CCN(CCO)CC1 ? Its PF50 was 1.8

Record CCS(=O)(=O)N1CCN(C(=O)c2cc(Cc3n[nH]c(=O)c4ccccc34)ccc2F)CC1 , field PF50: 4.9

Query O=C(c1cc(Cc2n[nH]c(=O)c3ccccc23)ccc1F)N1CCCNCC1 yields PF50 of 12.6

Item: O=C(c1cc(Cc2n[nH]c(=O)c3ccccc23)ccc1F)N1CCN(C(=O)C2CCCO2)CC1 (centres undefined) | PF50: 39.4

Measured PF50, CCCCN1CCN(C(=O)c2cc(Cc3n[nH]c(=O)c4ccccc34)ccc2F)CC1 : 6.4

So for O=C(c1cccc(Cc2n[nH]c(=O)c3ccccc23)c1)N1CCN(c2ccccn2)CC1 , the logged PF50 turned out to be 24.3

Field PF50 (entry O=C(c1cc(Cc2n[nH]c(=O)c3ccccc23)ccc1F)N1CCCN(C(=O)N2CCOCC2)CC1 ) reads 2.5

// recorded PF50 for O=C(c1cc(Cc2n[nH]c(=O)c3ccccc23)ccc1F)N1CCN(C(=O)C2CCCC2)CC1 : 11.8

Looking up O=C(c1cccc(Cc2n[nH]c(=O)c3ccccc23)c1)N1CCN(C(=O)N2CCOCC2)CC1 , I see its PF50 listed as 2.3

PF50 in this record for CCS(=O)(=O)N1CCCN(C(=O)c2cccc(Cc3n[nH]c(=O)c4ccccc34)c2)CC1 : 1.4
